The origin of these recorded values is ChEMBL document CHEMBL3621107.

# Tested on: NCI-H522
# Assay Explanation: Cytotoxicity against human NCI-H522 cells after 48 hrs by SRB assay
# Assay type: functional
# Stated Conditions: NCI-H522, 48 h
# LC50 (concentration giving 50% net cell kill) listing for each entry below

Lookup: State its LC50 (concentration giving 50% net cell kill) on NCI-H522: CC(C)Sc1cc2c(c3nsnc13)C(=O)c1ccccc1C2=O
Found: 9.96 µM

Lookup: State its LC50 (concentration giving 50% net cell kill) on NCI-H522: O=C1c2ccccc2C(=O)c2c1cc(Sc1cccc(Cl)c1)c1nsnc21
Found: 9.91 µM

Lookup: State its LC50 (concentration giving 50% net cell kill) on NCI-H522: O=C1c2ccccc2C(=O)c2c1cc(SCc1ccccc1)c1nsnc21
Found: > 50 µM

Lookup: State its LC50 (concentration giving 50% net cell kill) on NCI-H522: O=C1c2ccccc2C(=O)c2c1cc(Sc1ccccc1Br)c1nsnc21
Found: > 50 µM

Now consider the entry below.
Lookup: State its LC50 (concentration giving 50% net cell kill) on NCI-H522: O=C1c2ccccc2C(=O)c2c1cc(Sc1ccc(F)cc1F)c1nsnc21
Found: 37.1 µM

---

# System: 786-0
# Assay Explanation: Cytotoxicity against human 786-0 cells assessed as cell growth at 10 uM after 48 hrs by SRB assay relative to control
# Type: functional
# Stated Conditions: 786-0, 48 h, read-out: Activity
# growth at 10 µM listing for each entry below
Just the number please, in %, no unit attached.

Worked examples, 5 compounds total:
Lookup: Which growth at 10 µM reading was recorded for the compound O=C1c2ccccc2C(=O)c2c1cc(SCc1ccc(Cl)cc1)c1nsnc21 ?
Found: 118

Lookup: Which growth at 10 µM reading was recorded for the compound Cc1cccc(C)c1Sc1cc2c(c3nsnc13)C(=O)c1ccccc1C2=O ?
Found: 115

Lookup: Which growth at 10 µM reading was recorded for the compound CCOc1cccc(Sc2cc3c(c4nsnc24)C(=O)c2ccccc2C3=O)c1 ?
Found: 100

Lookup: Which growth at 10 µM reading was recorded for the compound O=C1c2ccccc2C(=O)c2c1ccc1nsnc21 ?
Found: -26

Lookup: Which growth at 10 µM reading was recorded for the compound O=C1c2ccccc2C(=O)c2c1cc(Sc1ccccc1)c1nsnc21 ?
Found: 110

Next:
Lookup: Which growth at 10 µM reading was recorded for the compound CC(C)Sc1cc2c(c3nsnc13)C(=O)c1ccccc1C2=O ?
Found: 12.4

Lookup: Which growth at 10 µM reading was recorded for the compound O=C1c2ccccc2C(=O)c2c1cc(Sc1ccc(Cl)cc1)c1nsnc21 ?
Found: 109

Lookup: Which growth at 10 µM reading was recorded for the compound COc1ccc(Sc2cc3c(c4nsnc24)C(=O)c2ccccc2C3=O)cc1 ?
Found: 94.9

---

# System: KM12
# Assay Explanation: Cytotoxicity against human KM12 cells after 48 hrs by SRB assay
# Assay type: functional
# Stated Conditions: KM12, 48 h
# LC50 (concentration killing 50% of cells) listing for each entry below
Just the number please, in µM, no unit attached.

Lookup: State its LC50 (concentration killing 50% of cells) on KM12: CC(C)Sc1cc2c(c3nsnc13)C(=O)c1ccccc1C2=O
Found: 41.1

Now consider the entry below.
Lookup: State its LC50 (concentration killing 50% of cells) on KM12: O=C1c2ccccc2C(=O)c2c1cc(Sc1cccc(Cl)c1)c1nsnc21
Found: 65.7

---

# Test system: 786-0
# Assay Explanation: Cytotoxicity against human 786-0 cells after 48 hrs by SRB assay
# Assay type: functional
# Stated Conditions: 786-0, 48 h
# TGI listing for each entry below
Just the number please, in µM, no unit attached.

Lookup: Which TGI reading was recorded for the molecule O=C1c2ccccc2C(=O)c2c1cc(SCc1ccccc1)c1nsnc21 ?
Found: 25.4

Lookup: Which TGI reading was recorded for the molecule O=C1c2ccccc2C(=O)c2c1cc(Sc1cccc(Cl)c1)c1nsnc21 ?
Found: 8.97

Lookup: Which TGI reading was recorded for the molecule O=C1c2ccccc2C(=O)c2c1cc(Sc1ccc(F)cc1F)c1nsnc21 ?
Found: 3.53

Lookup: Which TGI reading was recorded for the molecule CC(C)Sc1cc2c(c3nsnc13)C(=O)c1ccccc1C2=O ?
Found: 8.14

Now consider the entry below.
Lookup: Which TGI reading was recorded for the molecule O=C1c2ccccc2C(=O)c2c1cc(Sc1ccccc1Br)c1nsnc21 ?
Found: 29.7

---

# Test system: T47D
# Assay Explanation: Cytotoxicity against human T47D cells after 48 hrs by SRB assay
# Assay type: functional
One threshold, 1000 nM, splits the recorded GI50 values: lower ones are 1, equal or higher ones are 0.

Lookup: Is 1000 nM strictly greater than the compound's reported GI50? compound: CC(C)Sc1cc2c(c3nsnc13)C(=O)c1ccccc1C2=O
Found: 1

Next:
Lookup: Is 1000 nM strictly greater than the compound's reported GI50? compound: O=C1c2ccccc2C(=O)c2c1cc(Sc1cccc(Cl)c1)c1nsnc21
Found: 0

Lookup: Is 1000 nM strictly greater than the compound's reported GI50? compound: O=C1c2ccccc2C(=O)c2c1cc(Sc1ccc(F)cc1F)c1nsnc21
Found: 1

Lookup: Is 1000 nM strictly greater than the compound's reported GI50? compound: O=C1c2ccccc2C(=O)c2c1cc(Sc1ccccc1Br)c1nsnc21
Found: 0

Lookup: Is 1000 nM strictly greater than the compound's reported GI50? compound: O=C1c2ccccc2C(=O)c2c1cc(SCc1ccccc1)c1nsnc21
Found: 0

---

# growth at 10 µM listing for each entry below
# System: HOP-62
# Assay Explanation: Cytotoxicity against human HOP62 cells assessed as cell growth at 10 uM after 48 hrs by SRB assay relative to control
# Assay type: functional
# Stated Conditions: HOP-62, 48 h, read-out: Activity
Just the number please, in %, no unit attached.

Worked examples, 8 compounds total:
Lookup: Which growth at 10 µM reading was recorded for the compound CC(C)Sc1cc2c(c3nsnc13)C(=O)c1ccccc1C2=O ?
Found: 13.2

Lookup: Which growth at 10 µM reading was recorded for the compound COc1cccc(Sc2cc3c(c4nsnc24)C(=O)c2ccccc2C3=O)c1 ?
Found: 61.8

Lookup: Which growth at 10 µM reading was recorded for the compound CCOc1cccc(Sc2cc3c(c4nsnc24)C(=O)c2ccccc2C3=O)c1 ?
Found: 91.9

Lookup: Which growth at 10 µM reading was recorded for the compound O=C1c2ccccc2C(=O)c2c1cc(SCc1ccc(Cl)cc1)c1nsnc21 ?
Found: 89.2

Lookup: Which growth at 10 µM reading was recorded for the compound O=C1c2ccccc2C(=O)c2c1cc(SCc1ccccc1)c1nsnc21 ?
Found: 83.7

Lookup: Which growth at 10 µM reading was recorded for the compound O=C1c2ccccc2C(=O)c2c1cc(Sc1ccc(Cl)cc1)c1nsnc21 ?
Found: 102

Lookup: Which growth at 10 µM reading was recorded for the compound O=C1c2ccccc2C(=O)c2c1cc(Sc1cc(Cl)ccc1Cl)c1nsnc21 ?
Found: 63.2

Lookup: Which growth at 10 µM reading was recorded for the compound O=C1c2ccccc2C(=O)c2c1cc(Sc1ccccc1)c1nsnc21 ?
Found: 110

Next:
Lookup: Which growth at 10 µM reading was recorded for the compound O=C1c2ccccc2C(=O)c2c1cc(Sc1ccccc1Br)c1nsnc21 ?
Found: 4.88

Lookup: Which growth at 10 µM reading was recorded for the compound COc1ccc(Sc2cc3c(c4nsnc24)C(=O)c2ccccc2C3=O)cc1 ?
Found: 95.2

Lookup: Which growth at 10 µM reading was recorded for the compound O=C1c2ccccc2C(=O)c2c1cc(Cl)c1nsnc21 ?
Found: 75.8

---

# Test system: NCI-H522
# Assay Explanation: Cytotoxicity against human NCI-H522 cells assessed as cell growth at 10 uM after 48 hrs by SRB assay relative to control
# Format: functional
# Stated Conditions: NCI-H522, 48 h, read-out: Activity
Value Type: growth at 10 µM (%)
Just the number please, in %, no unit attached.

Lookup: State its growth at 10 µM on NCI-H522: O=C1c2ccccc2C(=O)c2c1cc(Sc1ccc(F)cc1F)c1nsnc21
Found: 61.1

---

# Tested on: NCI-H522
# Assay Explanation: Cytotoxicity against human NCI-H522 cells after 48 hrs by SRB assay
# Format: functional
# Stated Conditions: NCI-H522, 48 h
Value Type: GI50 (µM)
Just the number please, in µM, no unit attached.

Lookup: Which GI50 reading was recorded for the compound O=C1c2ccccc2C(=O)c2c1cc(SCc1ccccc1)c1nsnc21 ?
Found: 8.64

Lookup: Which GI50 reading was recorded for the compound O=C1c2ccccc2C(=O)c2c1cc(Sc1ccccc1Br)c1nsnc21 ?
Found: 14.9

Lookup: Which GI50 reading was recorded for the compound O=C1c2ccccc2C(=O)c2c1cc(Sc1ccc(F)cc1F)c1nsnc21 ?
Found: 3.76

Lookup: Which GI50 reading was recorded for the compound CC(C)Sc1cc2c(c3nsnc13)C(=O)c1ccccc1C2=O ?
Found: 2.38

Now consider the entry below.
Lookup: Which GI50 reading was recorded for the compound O=C1c2ccccc2C(=O)c2c1cc(Sc1cccc(Cl)c1)c1nsnc21 ?
Found: 1.84
